assay: Spreading of 10 μL droplet on polystyrene Petri dishes; type: physicochemical; conditions: 0.1% weight surfactant, 30 seconds
Metric: Spread Diameter (mm)
Answer shape: numeric part, then the unit.

INSERT INTO measurements (smiles_input, value_reported) VALUES
  ('C[Si](C)(C)CC[Si](C)(C)CCCOCCOCCOCCOCCO', '42 mm'),
  ('C[Si](C)(C)C[Si](C)(C)CCCOCCOCCOCCOCCOCCOCCOCCOCCOCCOCCOCCO', '7 mm'),
  ('C[Si](C)(C)CC[Si](C)(C)CCCOCCOCCOCCOCCOCCOCCOCCOCCOCCOCCOCCO', '7 mm');

**Q:** Using the record for `C[Si](C)(C)C[Si](C)(C)CCCOCCOCCOCCOCCO` , state its measured Spread Diameter (mm).
**A:** 45 mm
